TARGET OR SYSTEM: HLA-A*02:06
RUN DESCRIPTION: IEDB peptide-MHC binding, purified MHC/competitive/fluorescence; filed as Kd, often an IC50 or EC50 that approximates it; bounds were set here for any values at or beyond the usual limits of such assays
COND: source organism: Vaccinia virus WR
REPORTED PROPERTY: Kd (µM)

INSERT INTO measurements (polymer_sequence, target_or_system, recorded_value) VALUES
  ('KVFDKSLLY', 'HLA-A*02:06', 3.1);

====

Kd values, listed per item
TARGET OR SYSTEM: HLA-A*31:01
RUN DESCRIPTION: IEDB peptide-MHC binding, purified MHC/competitive/radioactivity; filed as Kd, often an IC50 or EC50 that approximates it; bounds were set here for any values at or beyond the usual limits of such assays
COND: source organism: Dengue virus 3 Martinique/1243/1999
REPORTED PROPERTY: Kd (nM)

INSERT INTO assay_data (polymer_sequence, target_or_system, u, recorded_value) VALUES
  ('MLVTPSMTMR', 'HLA-A*31:01', 'nM', 111),
  ('AALAFHLTSR', 'HLA-A*31:01', 'nM', 17.5);

====

TARGET OR SYSTEM: HLA-A*69:01
RUN DESCRIPTION: IEDB peptide-MHC binding, purified MHC/direct/fluorescence; filed as Kd, often an IC50 or EC50 that approximates it; bounds were set here for any values at or beyond the usual limits of such assays
COND: source organism: Brucella abortus 2308
REPORTED PROPERTY: Kd

INSERT INTO measurements (polymer_sequence, reported_property, recorded_value) VALUES
  ('TPPVDRMAV', 'Kd', '≥ 20 µM');

====

pKd values, listed per item
TARGET OR SYSTEM: HLA-A*33:01
RUN DESCRIPTION: IEDB peptide-MHC binding, purified MHC/competitive/radioactivity; filed as Kd, often an IC50 or EC50 that approximates it; bounds were set here for any values at or beyond the usual limits of such assays
COND: source organism: Mammarenavirus guanaritoense
pKd: −log10 of the molar value.
REPORTED PROPERTY: pKd

INSERT INTO assay_data (polymer_sequence, reported_property, sign_qualifier, recorded_value) VALUES
  ('ACRCGRFQK', 'pKd', '≤', 4.56),
  ('IFFTTSLFLH', 'pKd', '=', 5.98);

====

TARGET OR SYSTEM: HLA-A*29:02
RUN DESCRIPTION: IEDB peptide-MHC binding, purified MHC/direct/fluorescence; filed as Kd, often an IC50 or EC50 that approximates it; bounds were set here for any values at or beyond the usual limits of such assays
COND: source organism: Ravn virus - Ravn, Kenya, 1987
pKd: −log10 of the molar value.
REPORTED PROPERTY: pKd

INSERT INTO results (polymer_sequence, target_or_system, reported_property, recorded_value) VALUES
  ('HSGFIYFGK', 'HLA-A*29:02', 'pKd', '≤ 4.70');

====

TARGET OR SYSTEM: HLA-A*02:03
RUN DESCRIPTION: IEDB peptide-MHC binding, purified MHC/competitive/fluorescence; filed as Kd, often an IC50 or EC50 that approximates it; bounds were set here for any values at or beyond the usual limits of such assays
COND: source organism: Corynebacterium glutamicum ATCC 13032
pKd: −log10 of the molar value.
REPORTED PROPERTY: pKd

INSERT INTO measurements (polymer_sequence, recorded_value) VALUES
  ('HLPELIWRS', 6.02);

====

TARGET OR SYSTEM: HLA-A*31:01
RUN DESCRIPTION: IEDB peptide-MHC binding, purified MHC/competitive/radioactivity; filed as Kd, often an IC50 or EC50 that approximates it; bounds were set here for any values at or beyond the usual limits of such assays
COND: source organism: Lymphocytic choriomeningitis virus (strain WE)
pKd: −log10 of the molar value.
REPORTED PROPERTY: pKd

INSERT INTO assay_data (polymer_sequence, recorded_value) VALUES
  ('SRILFAQEK', '≤ 4.41');

====

TARGET OR SYSTEM: HLA-B*15:01
RUN DESCRIPTION: IEDB peptide-MHC binding, purified MHC/competitive/radioactivity; filed as Kd, often an IC50 or EC50 that approximates it; bounds were set here for any values at or beyond the usual limits of such assays
COND: source organism: Dengue virus 1 Singapore/S275/1990
pKd: −log10 of the molar value.
REPORTED PROPERTY: pKd

INSERT INTO measurements (polymer_sequence, reported_property, recorded_value) VALUES
  ('IMAVGIVSI', 'pKd', 7.51);

====

TARGET OR SYSTEM: HLA-B*44:02
RUN DESCRIPTION: IEDB peptide-MHC binding, purified MHC/competitive/radioactivity; filed as Kd, often an IC50 or EC50 that approximates it; bounds were set here for any values at or beyond the usual limits of such assays
COND: source organism: Lymphocytic choriomeningitis virus (strain Armstrong)
pKd: −log10 of the molar value.
REPORTED PROPERTY: pKd

INSERT INTO measurements (polymer_sequence, recorded_value) VALUES
  ('AEILPDTTY', 7.01);

====

TARGET OR SYSTEM: HLA-A*29:02
RUN DESCRIPTION: IEDB peptide-MHC binding, purified MHC/competitive/fluorescence; filed as Kd, often an IC50 or EC50 that approximates it; bounds were set here for any values at or beyond the usual limits of such assays
COND: source organism: Salmonella enterica subsp. enterica serovar Choleraesuis str. SC-B67
REPORTED PROPERTY: Kd (µM)

INSERT INTO assay_data (polymer_sequence, recorded_value) VALUES
  ('GIALAVPCV', 3);

====

TARGET OR SYSTEM: HLA-A*01:01
RUN DESCRIPTION: IEDB peptide-MHC binding, purified MHC/competitive/fluorescence; filed as Kd, often an IC50 or EC50 that approximates it; bounds were set here for any values at or beyond the usual limits of such assays
COND: source organism: Rickettsia akari str. Hartford
pKd: −log10 of the molar value.
REPORTED PROPERTY: pKd

INSERT INTO results (polymer_sequence, target_or_system, reported_property, recorded_value) VALUES
  ('FTARIIIFS', 'HLA-A*01:01', 'pKd', '≤ 5.30');

====

TARGET OR SYSTEM: HLA-A*02:12
RUN DESCRIPTION: IEDB peptide-MHC binding, purified MHC/direct/fluorescence; filed as Kd, often an IC50 or EC50 that approximates it; bounds were set here for any values at or beyond the usual limits of such assays
COND: source organism: Mycobacterium tuberculosis str. Haarlem
REPORTED PROPERTY: Kd

INSERT INTO assay_data (polymer_sequence, reported_property, recorded_value) VALUES
  ('MAVTAAPYI', 'Kd', '≥ 20 µM');

====

TARGET OR SYSTEM: HLA-A*68:01
RUN DESCRIPTION: IEDB peptide-MHC binding, purified MHC/competitive/radioactivity; filed as Kd, often an IC50 or EC50 that approximates it; bounds were set here for any values at or beyond the usual limits of such assays
COND: source organism: Dengue virus 3 Martinique/1243/1999
Kd values, listed per item
REPORTED PROPERTY: Kd (nM)

INSERT INTO assay_data (polymer_sequence, sign_qualifier, recorded_value) VALUES
  ('MLVTPSMTMR', '=', 54.7),
  ('VTAASAAQR', '=', 43.2),
  ('EKVETWALR', '≥', 22900);

====

TARGET OR SYSTEM: HLA-A*03:01
RUN DESCRIPTION: IEDB peptide-MHC binding, purified MHC/direct/fluorescence; filed as Kd, often an IC50 or EC50 that approximates it; bounds were set here for any values at or beyond the usual limits of such assays
COND: source organism: Pseudomonas aeruginosa UCBPP-PA14
REPORTED PROPERTY: Kd

INSERT INTO results (polymer_sequence, reported_property, recorded_value) VALUES
  ('ANPGRVKDW', 'Kd', '≥ 20 µM');

====

TARGET OR SYSTEM: HLA-A*31:01
RUN DESCRIPTION: IEDB peptide-MHC binding, purified MHC/competitive/fluorescence; filed as Kd, often an IC50 or EC50 that approximates it; bounds were set here for any values at or beyond the usual limits of such assays
COND: source organism: Vibrio cholerae MO10
REPORTED PROPERTY: Kd

INSERT INTO measurements (polymer_sequence, recorded_value) VALUES
  ('EVNAHIHTM', '≥ 20 µM');

====

TARGET OR SYSTEM: HLA-B*08:01
RUN DESCRIPTION: IEDB peptide-MHC binding, purified MHC/competitive/fluorescence; filed as Kd, often an IC50 or EC50 that approximates it; bounds were set here for any values at or beyond the usual limits of such assays
COND: source organism: Rickettsia akari str. Hartford
pKd: −log10 of the molar value.
REPORTED PROPERTY: pKd

INSERT INTO results (polymer_sequence, target_or_system, recorded_value) VALUES
  ('FTARIIIFS', 'HLA-B*08:01', '≤ 5.30');

The measured values listed here are drawn from the Immune Epitope Database (IEDB).
